Parameter half-life: see the listing below.
Experiment: Pharmacokinetics assay in rats after intragastrical administration
Type: in vivo, Sprague-Dawley (SD) rats
Details: both sexes, Sprague-Dawley, rat, plasma, po; SD rats, intragastric, 2 mg/kg; read-out: Half-Life T½ (converted)
// note: answer is a bare numeric in h

Example molecules with recorded half-life:
INSERT INTO results (querysmiles, observedmeasurement) VALUES
  ('CNC(=O)c1ccc(NC(=O)[C@H](Cc2ccccc2)n2cc(OC)c(-c3cc(Cl)ccc3C(C)=O)cc2=O)cc1', 1.67),
  ('COc1cn([C@@H](Cc2ccccn2)C(=O)Nc2ccc(C(=O)O)cc2)c(=O)cc1-c1cc(Cl)ccc1C(C)=O', 0.85),
  ('COc1cn([C@@H](Cc2ccccc2)C(=O)Nc2ccc(C(N)=O)cc2)c(=O)cc1-c1cc(Cl)ccc1C(C)=O', 1.53);

As a next step, examine the molecule that follows.
The reported half-life of the molecule `COc1cn([C@@H](Cc2ccccc2)C(=O)Nc2ccc(C(=O)O)cc2)c(=O)cc1-c1cc(Cl)ccc1C(C)=O` was 0.89

* * *

Test: Pharmacokinetics assay in rats after intragastrical administration
Format: in vivo, Sprague-Dawley (SD) rats
Details: both sexes, Sprague-Dawley, rat, plasma, po; SD rats, intragastric, 2 mg/kg; read-out: Half-Life T½ (converted)
recordedMetric: half-life (h)
// note: answer is a bare numeric in h

Example molecules with recorded half-life:
INSERT INTO results (querysmiles, observedmeasurement) VALUES
  ('CCC(=O)c1ccc(Cl)cc1-c1cc(=O)n([C@@H](CCOC(C)(C)C)C(=O)Nc2ccc(C(=O)O)cc2)cc1OC', 6.98),
  ('COc1cn([C@@H](CC2CCC2)C(=O)Nc2ccc(C(=O)O)cc2)c(=O)cc1-c1cc(Cl)ccc1C(C)=O', 1.45),
  ('COc1cn([C@H](CC2CCC2)C(=O)Nc2ccc(C(=O)O)cc2)c(=O)cc1-c1c(C(C)=O)ccc(Cl)c1F', 4.34);

The reported half-life of the molecule `COc1cn([C@@H](Cc2cccnc2)C(=O)Nc2ccc(C(=O)O)cc2)c(=O)cc1-c1cc(Cl)ccc1C(C)=O` was 0.68

The reported half-life of the molecule `COc1cn([C@@H](CCOC(C)(C)C)C(=O)Nc2ccc(C(=O)O)cc2)c(=O)cc1-c1cc(Cl)ccc1C(C)=O` was 4.94

* * *

Experiment: Pharmacokinetics assay in rats after intragastrical administration
Format: in vivo, Sprague-Dawley (SD) rats
Settings: both sexes, Sprague-Dawley, rat, plasma, po; SD rats, intragastric, 2 mg/kg; read-out: Plasma Concentration Cmax
recordedMetric: Cmax (ng/mL)
// note: answer is a bare numeric in ng/mL

Example molecules with recorded Cmax:
INSERT INTO results (molecule, observedmeasurement) VALUES
  ('COc1cn([C@H](CC2CCC2)C(=O)Nc2ccc(C(=O)O)cc2)c(=O)cc1-c1c(C(C)=O)ccc(Cl)c1F', 53.9),
  ('CCC(=O)c1ccc(Cl)cc1-c1cc(=O)n([C@@H](CCOC(C)(C)C)C(=O)Nc2ccc3nccnc3c2)cc1OC', 91.2),
  ('COc1cn(C(Cc2ccccc2)C(=O)Nc2ccc(C(=O)O)cc2F)c(=O)cc1-c1cc(Cl)ccc1C(C)=O (stereo not shown)', 167),
  ('CNC(=O)c1ccc(NC(=O)[C@H](Cc2ccccc2)n2cc(OC)c(-c3cc(Cl)ccc3C(C)=O)cc2=O)cc1', 119),
  ('COc1cn([C@@H](Cc2ccccc2)C(=O)Nc2ccc(C(=O)O)cc2)c(=O)cc1-c1cc(Cl)ccc1C(C)=O', 244);

The reported Cmax of the molecule `COc1cn([C@@H](Cc2ccccn2)C(=O)Nc2ccc(C(=O)O)cc2)c(=O)cc1-c1cc(Cl)ccc1C(C)=O` was 126

The reported Cmax of the molecule `COc1cn([C@@H](CC2CCC2)C(=O)Nc2ccc(C(=O)O)cc2)c(=O)cc1-c1cc(Cl)ccc1C(C)=O` was 462
